Target: Retinoic acid receptor RXR-alpha (Homo sapiens)
Test: qHTS assay to identify small molecule agonists of the RXR signaling pathway (AID 1159527); note: nearly all actives have a fitted effect of over 35% in size
Conditions: HEK293T RXRa-UAS-bla, beta-lactamase ratio, 16 h; series mostly up to 76.8 µM
From the text: U.S. Tox21 Program National Center for Advancing Translational Sciences [NCATS] NIH Chemical Genomics Center [NCGC] U.S. Environmental Protection Agency [EPA] National Institutes of Environmental Health Sciences [NIEHS] National Toxicology Program [NTP] U.S. Food and Drug Administration [FDA] Tox21 Assay Overview: The Retinoid X receptor (RXR), a nuclear hormone receptor expressed in liver, spleen, placenta, epidermis, central nervous system. […]
Results filed as inconclusive are left out. The source made the active and inactive calls. Calls come from the whole dose curve.
Metric Name: activation

A selection of reference data follows.
Compound	Target Desc	Observed
CC(=O)N[C@@H](CCC(=O)O)C(=O)O	Retinoic acid receptor RXR-alpha (Homo sapiens)	inactive
Cc1ccc(S(=O)(=O)O)c(C)c1	Retinoic acid receptor RXR-alpha (Homo sapiens)	inactive
Nc1ccc(S(=O)(=O)Nc2ccc(Cl)nn2)cc1	Retinoic acid receptor RXR-alpha (Homo sapiens)	inactive
CC(=C(CCOC(=O)C(C)C)SSC(CCOC(=O)C(C)C)=C(C)N(C=O)Cc1cnc(C)nc1N)N(C=O)Cc1cnc(C)nc1N	Retinoic acid receptor RXR-alpha (Homo sapiens)	inactive

Kindly note the recorded activation for NC(CO)C(=O)NNCc1ccc(O)c(O)c1O (stereo unspecified) , which is inactive

Kindly note the recorded activation for "C[C@H](CCC(=O)O)[C@H]1CC[C@H]2[C@@H]3C(=O)C[C@@H]4CC(=O)CC[C@]4(C)[C@H]3CC(=O)[C@]12C" , which is inactive

Kindly note the recorded activation for "NNc1nnc(NN)c2ccccc12" , which is inactive

Kindly note the recorded activation for "ClCCCl" , which is inactive

Kindly note the recorded activation for "Cc1cccc2nccnc12" , which is inactive

Where do these numbers come from? They come from PubChem BioAssay (Tox21).
